In this section, each of the binders is paired with its reported koff.
# EXPERIMENTAL_TARGET: T1, recombinant ILT2 (human) (human, UniProt Q8NHL6 24-461)
# T1 construct: also called recombinant ILT2 peptide; ILT2 protein
# T1 sequence (Q8NHL6 24-461 limits assumed): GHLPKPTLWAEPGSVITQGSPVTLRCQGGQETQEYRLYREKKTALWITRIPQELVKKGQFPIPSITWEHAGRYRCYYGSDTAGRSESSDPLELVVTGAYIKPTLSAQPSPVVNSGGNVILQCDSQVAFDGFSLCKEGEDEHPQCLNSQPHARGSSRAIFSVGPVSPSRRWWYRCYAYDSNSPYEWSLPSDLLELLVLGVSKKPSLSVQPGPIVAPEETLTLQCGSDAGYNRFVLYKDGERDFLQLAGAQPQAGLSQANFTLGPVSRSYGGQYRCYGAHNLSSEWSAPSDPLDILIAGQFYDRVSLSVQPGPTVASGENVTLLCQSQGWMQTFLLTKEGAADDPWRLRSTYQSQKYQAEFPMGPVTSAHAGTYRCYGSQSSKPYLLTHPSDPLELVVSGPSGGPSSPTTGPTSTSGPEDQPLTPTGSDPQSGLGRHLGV
# EXPERIMENT_DESCRIPTION: SPR (Biacore T200), HEK EBNA supernatants on recombinant ILT2 peptide
Number in s⁻¹, nothing else.

// returns reported koff for input 15G8-34 (humanized 15G8, VH3/Vk4) (antibody, IgG4, V domains shown, Humanized IgG4 (S228P, L235E), kappa) VH: DVQLQGSGPGLVKPSETLSLTCSVTGYSITSGYYWNWIRQPPGKGLEWMGYISYDGSNNYNPSLKNRITISRDTSKNQFSLKLSSVTAADTATYYCAHGYSYYYAMDAWGQGTTVTVSS VL: DIQMTQSPSSLSASVGDRVTITCRTSQDISNYLNWYQQKPGKAPKLLISYTSRLHSGVPSRFSGSGSGTDYTLTISSLQPEDFATYFCQQGNTLPTFGQGTKLEIK
0.00832

// returns reported koff for input 15G8-13 (humanized 15G8, VH1/Vk3, alanine variant A108) (antibody, human IgG4 S228P, kappa, V domains shown, Humanized IgG4 (S228P, L235E), kappa; also called 15G8 humanized antibody; BND-22) VH: DVQLQGSGPGLVKPSETLSLTCSVTGYSITSGYYWNWIRQFPGKKLEWMGYISYDGSNNYNPSLKNRITISRDTSKNQFSLKLNSVTAADTATYYCAHGYSYYYAMDAWGQGTSVTVSS VL: DIQMTQSPSSLSASVGDRVTITCRTSQDISNYLNWYQQKPGKAVKLLISYTSRLHSGVPSRFSGSGSGTDYTLTISSLQPEDFATYYCQQGNTLPTFGQGTKLEIKR
0.00905

// returns reported koff for input 15G8-32 (humanized 15G8, VH3/Vk2) (antibody, human IgG4 S228P, kappa, V domains shown, Humanized IgG4 (S228P, L235E), kappa) VH: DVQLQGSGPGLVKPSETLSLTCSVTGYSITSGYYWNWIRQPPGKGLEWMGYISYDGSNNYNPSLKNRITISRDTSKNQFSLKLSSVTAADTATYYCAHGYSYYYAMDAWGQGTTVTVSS VL: DIQMTQSPSSLSASVGDRVTITCRTSQDISNYLNWYQQKPGKAVKLLISYTSRLHSGVPSRFSGSGSGTDYTLTISSLQPEDFATYFCQQGNTLPTFGQGTKLEIKR
0.00664

// returns reported koff for input humanized 15G8 VH2/Vk2 (antibody, IgG4, V domains shown, Humanized IgG4 (S228P, L235E), kappa; tested as supernatant of transiently transfected HEK EBNA cells) VH: DVQLQGSGPGLVKPSETLSLTCSVTGYSITSGYYWNWIRQFPGKKLEWMGYISYDGSNNYNPSLKNRITISRDTSKNQFSLKLSSVTAADTATYYCAHGYSYYYAMDAWGQGTTVTVSS VL: DIQMTQSPSSLSASVGDRVTITCRTSQDISNYLNWYQQKPGKAVKLLISYTSRLHSGVPSRFSGSGSGTDYTLTISSLQPEDFATYFCQQGNTLPTFGQGTKLEIK
0.0066

// returns reported koff for input 15G8-54 (humanized 15G8, VH5/Vk4) (antibody, IgG4, V domains shown, Humanized IgG4 (S228P, L235E), kappa) VH: QVQLQGSGPGLVKPSETLSLTCTVTGYSITSGYYWNWIRQPPGKGLEWIGYISYDGSNNYNPSLKNRVTISRDTSKNQFSLKLSSVTAADTATYYCAHGYSYYYAMDAWGQGTTVTVSS VL: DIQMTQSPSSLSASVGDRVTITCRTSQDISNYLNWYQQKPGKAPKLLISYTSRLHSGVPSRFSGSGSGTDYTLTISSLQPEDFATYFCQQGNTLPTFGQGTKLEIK
0.0117
